// provenance: patent US20190134000A1

Assay: in vitro
Settings: human, microsomes
What microsomal CLint at 1 μM was measured for each of the following?

Exercise: Report measured microsomal CLint at 1 μM; entry is CN1[C@@H]2CC[C@H]1C[C@@H](OC(=O)c1c[nH]c3cc(F)ccc13)C2
Key: < 9.6 µL/min/mg

Exercise: Report measured microsomal CLint at 1 μM; entry is CN1[C@@H]2CC[C@H]1C[C@@H](OC(=O)c1c[nH]c3ccccc13)C2 [Compound F03, tropisetron, reference compound]
Key: < 9.6 µL/min/mg

Exercise: Report measured microsomal CLint at 1 μM; entry is CC(=O)CC(c1ccccc1)c1c(O)c2ccccc2oc1=O (stereo not drawn)
Key: < 9.6 µL/min/mg

----------
Assay: Acute non-GLP toxicity study, oral 450 mg/kg
Format: in vivo, rats
Details: rat, in vivo, po, 450 mg/kg
RESULT TYPE: concentration at 24 h (ng/mL)
A number alone suffices; assume ng/mL.

Exercise: Report measured concentration at 24 h; entry is CN1[C@@H]2CC[C@H]1C[C@@H](OC(=O)c1c[nH]c3cc(F)ccc13)C2 [Compound C41]
Key: 115

----------
What half-life at 1 μM was measured for each of the following?
Test: in vitro
Details: human, microsomes

Exercise: Report measured half-life at 1 μM; entry is CN1[C@@H]2CC[C@H]1C[C@@H](OC(=O)c1c[nH]c3ccccc13)C2 [Compound F03, tropisetron, reference compound]
Key: > 4 h

Exercise: Report measured half-life at 1 μM; entry is CN1[C@@H]2CC[C@H]1C[C@@H](OC(=O)c1c[nH]c3cc(F)ccc13)C2 [Compound C41]
Key: > 4 h

----------
Experiment: in vivo
Details: rat, po, Tmax
RESULT TYPE: Tmax (h)
A number alone suffices; assume h.

Exercise: Report measured Tmax; entry is CN1[C@@H]2CC[C@H]1C[C@@H](OC(=O)c1c[nH]c3cc(F)ccc13)C2
Key: 6.33

----------
Test: Solubility in water
RESULT TYPE: solubility (mM)
A number alone suffices; assume mM.

Exercise: Report measured solubility; entry is CN1[C@@H]2CC[C@H]1C[C@@H](OC(=O)c1c[nH]c3ccccc13)C2 [Compound F03, tropisetron, reference compound]
Key: 100

----------
Target: CYP3A4 (Homo sapiens)
Sequence (P08684 whole entry): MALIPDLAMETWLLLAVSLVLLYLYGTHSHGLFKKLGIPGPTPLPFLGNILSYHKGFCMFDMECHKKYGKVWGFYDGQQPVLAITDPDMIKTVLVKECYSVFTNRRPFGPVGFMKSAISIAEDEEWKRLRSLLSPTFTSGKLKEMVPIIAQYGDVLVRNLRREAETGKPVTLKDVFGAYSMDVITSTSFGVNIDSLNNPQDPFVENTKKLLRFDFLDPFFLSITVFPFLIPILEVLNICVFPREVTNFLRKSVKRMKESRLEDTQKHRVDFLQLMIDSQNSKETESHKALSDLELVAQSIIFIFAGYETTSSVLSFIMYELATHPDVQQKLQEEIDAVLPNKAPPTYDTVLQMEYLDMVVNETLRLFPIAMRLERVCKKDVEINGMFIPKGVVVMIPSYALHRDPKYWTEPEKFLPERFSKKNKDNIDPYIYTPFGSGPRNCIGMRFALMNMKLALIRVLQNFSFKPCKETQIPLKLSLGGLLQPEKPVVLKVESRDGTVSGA
Assay: CYP inhibition screen CYP3A4
Format: in vitro ADME
Settings: human, CYP3A4 testosterone inhibition
RESULT TYPE: inhibition at 30 µM (%)
A number alone suffices; assume %.

Exercise: Report measured inhibition at 30 µM; entry is CN1[C@@H]2CC[C@H]1C[C@@H](OC(=O)c1c[nH]c3cc(F)ccc13)C2
Key: 2.5

----------
Assay: in vivo
Settings: rat, iv
RESULT TYPE: Kp at 0.5 h
The answer should be written as a number, with no unit following it.

Exercise: Report measured Kp at 0.5 h; entry is CN1[C@@H]2CC[C@H]1C[C@@H](OC(=O)c1c[nH]c3cc(F)ccc13)C2 [Compound C41]
Key: 8

----------
Target: CYP2D6 (Homo sapiens)
Sequence (P10635 whole entry): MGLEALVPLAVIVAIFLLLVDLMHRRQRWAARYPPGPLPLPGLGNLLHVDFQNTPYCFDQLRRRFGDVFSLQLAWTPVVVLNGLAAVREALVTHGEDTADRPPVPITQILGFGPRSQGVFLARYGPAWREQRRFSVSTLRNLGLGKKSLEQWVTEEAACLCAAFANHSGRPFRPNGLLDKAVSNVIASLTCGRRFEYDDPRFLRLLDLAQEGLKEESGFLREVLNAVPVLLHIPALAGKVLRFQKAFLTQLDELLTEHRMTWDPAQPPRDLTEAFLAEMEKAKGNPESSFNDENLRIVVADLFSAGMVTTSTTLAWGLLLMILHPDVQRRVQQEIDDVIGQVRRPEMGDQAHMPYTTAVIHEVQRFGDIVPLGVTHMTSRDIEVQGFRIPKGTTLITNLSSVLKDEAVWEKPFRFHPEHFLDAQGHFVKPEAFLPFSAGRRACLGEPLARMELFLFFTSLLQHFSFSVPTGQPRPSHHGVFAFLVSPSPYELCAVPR
Experiment: CYP inhibition screen CYP2D6
Format: in vitro ADME
Details: human
RESULT TYPE: inhibition at 30 µM (%)
A number alone suffices; assume %.

Exercise: Report measured inhibition at 30 µM; entry is CN1[C@@H]2CC[C@H]1C[C@@H](OC(=O)c1c[nH]c3cc(F)ccc13)C2
Key: 36.1
